Here the recorded pIC50 is given for each entry.
# experimental-target: immunoproteasome subunit LMP7 (Homo sapiens, UniProt P28062)
# Construct: Lysate from the human acute lymphoblastic leukemia cell line, MOLT-4; endogenous in cells; host or cells: MOLT-4
# experiment-description: Proteasome active-site ELISA (ProCISE), LMP7, MOLT-4 lysate
# Format: biochemical
# applied-conditions: MOLT4 lysate, 1 h continuous treatment, 25° C.
Note on pIC50: it is the negative log10 of concentration, concentration in mol/L.

C[C@H](NC(=O)CN1CCOCC1)C(=O)N[C@@H](Cc1ccc2c(c1)OCO2)C(=O)N[C@@H](CC1CCCC1)C(=O)[C@H]1CO1 : 7.91
COc1ccc(C[C@H](NC(=O)[C@H](C)NC(=O)CN2CCOCC2)C(=O)N[C@@H](Cc2ccc(O)cc2)C(=O)[C@@]2(C)CO2)cc1 : 7.36
Cc1ccc(C[C@H](NC(=O)[C@H](C)NC(=O)CN2CCOCC2)C(=O)N[C@@H](CC2=CCCC2)C(=O)[C@@]2(C)CO2)cc1O : 7.12

Name the recorded pIC50 for `COc1ccc(C[C@H](NC(=O)[C@H](C)NC(=O)[C@@H]2CCCO2)C(=O)N[C@@H](Cc2ccccc2)C(=O)[C@@]2(C)CO2)cc1` .
6.81

What value of pIC50 has been reported for the following compound? `COc1ccc(C[C@H](NC(=O)[C@H](C)NC(=O)CN2CCOCC2)C(=O)N[C@@H](CC2=CCCC2)C(=O)[C@H]2CO2)cc1`
8.04

Which value of pIC50 has been reported for `COc1ccc(C[C@H](NC(=O)[C@@H](C)NC(=O)[C@H]2CC[C@H](O)CC2)C(=O)N[C@@H](CC2=CCCC2)C(=O)[C@@]2(C)CO2)cc1O` in the records?
7.46

----------
Parameter 'readout' = pIC50; parameter 'system' = human constitutive 20S proteasome (c20S) (Homo sapiens).
Lab note — pIC50 values are minus log10 of concentrations in M.

COc1ccc(C[C@H](NC(=O)[C@@H](NC(=O)CN2CCOCC2)[C@H](C)O)C(=O)N[C@@H](Cc2ccccc2)C(=O)[C@@]2(C)CO2)cc1 [Compound C-1174] : 6.79
COc1ccc(C[C@H](NC(=O)[C@@H](C)NC(=O)C2CC(=O)C2)C(=O)N[C@@H](CC2CCCC2)C(=O)[C@@]2(C)CO2)cc1 [Compound C-1029] : 5.39
COc1ccc(C[C@H](NC(=O)[C@@H](C)NC(=O)C2CCCC2)C(=O)N[C@@H](CC2CCCC2)C(=O)[C@@]2(C)CO2)cc1 [Compound C-1021] : 5.45
C[C@H](NC(=O)CN1CCOCC1)C(=O)N[C@@H](Cc1ccc(N(C)C)cc1)C(=O)N[C@@H](Cc1ccccc1)C(=O)[C@@]1(C)CO1 [Compound C-1161] : 6.09
COc1ccc(C[C@H](NC(=O)[C@H](C)NC(=O)CN2CCOCC2)C(=O)N[C@@H](CC2CCCC2)C(=O)[C@@]2(C)CO2)cc1 [Compound C-1005] : 6.28

Missing value: pIC50, human constitutive 20S proteasome (c20S) (Homo sapiens), entry C[C@H](NC(=O)CN1CCOCC1)C(=O)N[C@@H](Cc1ccc(C(N)=O)cc1)C(=O)N[C@@H](CC1CCCC1)C(=O)[C@@]1(C)CO1 [Compound C-1049] . Fill in?
6.52

Request: pIC50, test system human constitutive 20S proteasome (c20S) (Homo sapiens), entry COc1ccc(C[C@H](NC(=O)[C@H](C)NC(=O)CN2CCC(C(F)(F)F)CC2)C(=O)N[C@@H](CC2CCCC2)C(=O)[C@@]2(C)CO2)cc1 [Compound C-1047]
6.15

----------
# experiment-description: Solubility pH 7
# applied-conditions: pH 7, aqueous buffer
Recorded solubility, one value per entry.
Answer in µg/mL, number only, no unit symbol.

Worked examples, 5 compounds total:
COc1ccc(C[C@H](NC(=O)[C@@H](C)NC(=O)C2CC3(COC3)C2)C(=O)N[C@@H](CC2=CCCC2)C(=O)[C@@]2(C)CO2)cc1 : 1310
COc1ccc(C[C@H](NC(=O)[C@H](C)NC(=O)CN2CCOCC2)C(=O)N[C@@H](C[C@H]2CCCO2)C(=O)[C@@]2(C)CO2)cc1 : 11700
C[C@H](NC(=O)CN1CCOCC1)C(=O)N[C@@H](Cc1ccc(S(N)(=O)=O)cc1)C(=O)N[C@@H](CC1CCCC1)C(=O)[C@@]1(C)CO1 : 2860
COc1ccc(C[C@H](NC(=O)CNC(=O)CN2CCOCC2)C(=O)N[C@@H](Cc2ccccc2)C(=O)[C@@]2(C)CO2)cc1 : 3270
COc1ccc(C[C@H](NC(=O)[C@@H](C)NC(=O)[C@H]2CC[C@H](O)CC2)C(=O)N[C@@H](Cc2ccc(C)cc2)C(=O)[C@@]2(C)CO2)cc1 : 457

Now turn to the next compound.
Fill in the blank: the reported solubility of `COc1ccc(C[C@H](NC(=O)[C@H](C)NC(=O)CN2CCOCC2)C(=O)N[C@@H](CC2CCCC2)C(=O)[C@@]2(C)CO2)cc1` is ____.
1760

----------
# experimental-target: proteasome subunit β5 (beta5) (Homo sapiens, UniProt P28074)
# Construct: Lysate from the human acute lymphoblastic leukemia cell line, MOLT-4; endogenous in cells; host or cells: MOLT-4
# experiment-description: Proteasome active-site ELISA (ProCISE), beta5, MOLT-4 lysate
# Assay type: biochemical
# applied-conditions: MOLT4 lysate, human, 1 h continuous treatment, 25° C.
Below: a set of entries, each annotated with reported IC50.
Express the result in nM but write the number alone.

Some compounds with known IC50 results, for comparison:
COc1ccc(C[C@H](NC(=O)[C@H](C)NC(=O)CN2CCC(O)CC2)C(=O)N[C@@H](CC2=CCCC2)C(=O)[C@@]2(C)CO2)cc1 [Compound C-1118] : 407
Cc1ccc(C[C@H](NC(=O)[C@H](C)NC(=O)CN2CCOCC2)C(=O)N[C@@H](CC2CCCC2)C(=O)[C@@]2(C)CO2)cc1O [Compound C-1117] : 1100

Lab note: next compound to report on.
GET /values?readout=IC50&item= C[C@H](NC(=O)CN1CCOCC1)C(=O)N[C@@H](Cc1cc[n+]([O-])cc1)C(=O)N[C@@H](CC1CCCC1)C(=O)[C@@]1(C)CO1 [Compound C-1119]
1390

----------
# experimental-target: proteasome subunit β5 (beta5) (Homo sapiens)
# Construct: Lysate from the human acute lymphoblastic leukemia cell line, MOLT-4; endogenous in cells; host or cells: MOLT-4
# experiment-description: Proteasome active-site ELISA (ProCISE), beta5, MOLT-4 lysate
# Assay type: biochemical
# applied-conditions: read-out: ProCISE beta5 MOLT4 lysate Hu 1 h CONT: IC50; MOLT4 lysate, human, 1 h continuous treatment, 25° C.
Listing of entries alongside the reported IC50.
Kindly answer with a numeric value in µM, unit omitted.

See these solved cases before continuing.
COc1ccc(C[C@H](NC(=O)[C@H](C)NC(=O)CN2CCOCC2)C(=O)N[C@@H](Cc2ccc(C)cc2)C(=O)[C@@]2(C)CO2)cc1 : 0.12
COc1ccc(C[C@H](NC(=O)[C@@H](C)NC(=O)[C@H]2CC[C@@H](O)CC2)C(=O)N[C@@H](Cc2ccccc2)C(=O)[C@@]2(C)CO2)cc1 : 0.0434
COc1ccc(C[C@H](NC(=O)[C@@H](COCc2ccccc2)NC(=O)CN2CCOCC2)C(=O)N[C@@H](Cc2ccccc2)C(=O)[C@@]2(C)CO2)cc1 : 0.175

I am curious: what IC50 value has been reported for `C=CC(=O)NC[C@H](NC(=O)[C@H](C)NC(=O)CN1CCOCC1)C(=O)N[C@@H](Cc1ccccc1)C(=O)[C@@]1(C)CO1` ?
0.205

Entry `COc1ccc(C[C@H](NC(=O)[C@@H](NC(=O)CN2CCOCC2)C2(O)CC2)C(=O)N[C@@H](Cc2ccccc2)C(=O)[C@@]2(C)CO2)cc1` has what IC50?
0.0639

----------
# experimental-target: human 20S immunoproteasome (i20S) (Homo sapiens)
# experiment-description: 20S proteasome assay, chymotrypsin-like activity (succinyl-Leu-Leu-Val-Tyr-AMC), i20S
# Assay type: biochemical
# applied-conditions: LLVY substrate, 1 h continuous
pIC50: −log10 of the molar value.
// bucketize pIC50: low end: < 6; middle: ≥ 6 and < 7; high end: ≥ 7

COc1ccc(C[C@H](NC(=O)[C@@H](C)NC(=O)C2CCOCC2)C(=O)N[C@@H](CC2CCCC2)C(=O)[C@@]2(C)CO2)cc1O : high end
COc1ccc(C[C@H](NC(=O)[C@@H](C)NC(=O)[C@@H]2CCC(=O)NC2)C(=O)N[C@@H](CC2CCCC2)C(=O)[C@@]2(C)CO2)cc1 : low end
COc1ccc(C[C@H](NC(=O)[C@H](C)NC(=O)CN2CCOCC2)C(=O)N[C@@H](CC2=CCCC2)C(=O)[C@@]2(C)CO2)cc1 : high end
COc1ccc(C[C@H](NC(=O)[C@H](C)NC(=O)CN2CCOCC2)C(=O)N[C@@H](CC2CCCC2)C(=O)[C@H]2CO2)cc1 : high end
C[C@H](NC(=O)CN1CCOCC1)C(=O)N[C@@H](Cc1ccc(C#N)cc1)C(=O)N[C@@H](CC1CCCC1)C(=O)[C@@]1(C)CO1 : high end
COc1ccc(C[C@H](NC(=O)[C@H](C)NC(=O)CN2CCOCC2)C(=O)N[C@@H](CC2CCCC2)C(=O)[C@@]2(C)CO2)cc1O : middle
C[C@H](NC(=O)CN1CCOCC1)C(=O)N[C@@H](Cc1ccco1)C(=O)N[C@@H](CC1CCCC1)C(=O)[C@@]1(C)CO1 : middle
COc1ccc(C[C@H](NC(=O)[C@H](C)NC(=O)CN2CCOCC2)C(=O)N[C@@H](C[C@H]2CC[C@@H](O)CC2)C(=O)[C@@]2(C)CO2)cc1 : low end

Lab log: `COc1ccc(C[C@H](NC(=O)[C@@H](NC(=O)CN2CCOCC2)[C@H](C)O)C(=O)N[C@@H](Cc2ccccc2)C(=O)[C@@]2(C)CO2)cc1` — assign pIC50 category
high end

All values here come from patent USRE47302E1.
